Experiment: Estimated solubility in solvents at room temperature (stepwise solvent addition)
Type: physicochemical
Conditions: 20 °C, organic solvent or mixture, thermodynamic from solid; n-heptane, room temperature (RT, 20±3° C.)
Description: Approximately 2 mg solids were added into a 3-mL glass vial. Solvents in Table 39 were then added step wise (100 μL per step) into the vials until the solids were dissolved or a total volume of 2 mL was reached. Results summarized in Table 39 were used to guide the solvent selection in polymorph screening. […] Approximately 2 mg solids were added into a 3-mL glass vial. […]
PARAMETER: solubility

1) Cc1cc(-c2ccnc(Nc3cnn(C)c3)n2)ccc1CNC(=O)N1CC(OC(C)C)C1.Cl | < 0.9 mg/mL
